# methodSummary: 1st phase clinical test: pharmacokinetics of petasin in serum after single oral administration of tablets containing butterbur extract (open crossover; enzyme immunoassay)
# Type: in vivo, human (clinically healthy men)
# conditionDetails: male, human, serum, oral, 2 tablets, after administering 2 tablets; 1.17 h p.a.; read-out: Petasin serum concentration Max.

{"columns": ["compound", "concentration at 1.17 h / ng/mL"],
 "data": [
  ["C=C(C)C1CC2(C)C(=CC1=O)CCC(OC(=O)/C(C)=C\\C)C2C (stereo not shown)", 62.9]
]}

* * *

# methodSummary: 1st phase clinical test: pharmacokinetics of petasin in serum after single oral administration of tablets containing butterbur extract (open crossover; enzyme immunoassay)
# Type: in vivo, human (clinically healthy men)
# conditionDetails: male, human, serum, oral, 2 tablets, after administering 2 tablets; 4 h p.a.; read-out: Petasin serum concentration Max.

{"columns": ["compound", "concentration at 4 h (ng/mL)"],
 "data": [
  ["C=C(C)C1CC2(C)C(=CC1=O)CCC(OC(=O)/C(C)=C\\C)C2C (stereo not shown)", 11.2]
]}

* * *

# methodSummary: 1st phase clinical test: pharmacokinetics of petasin in serum after single oral administration of tablets containing butterbur extract (open crossover; enzyme immunoassay)
# Assay type: in vivo, human (clinically healthy men)
# conditionDetails: male, human, serum, oral, 2 tablets, after administering 2 tablets; 0.75 h p.a.; read-out: Petasin serum concentration Min.

{"columns": ["compound", "concentration at 0.75 h, ng/mL"],
 "data": [
  ["C=C(C)C1CC2(C)C(=CC1=O)CCC(OC(=O)/C(C)=C\\C)C2C (stereo not shown) [petasin]", 4]
]}

* * *

# methodSummary: 1st phase clinical test: pharmacokinetics of petasin in serum after single oral administration of tablets containing butterbur extract (open crossover; enzyme immunoassay)
# Assay type: in vivo, human (clinically healthy men)
# conditionDetails: male, human, serum, oral, 4 tablets, after administering 4 tablets; 12 h p.a.; read-out: Petasin serum concentration Max.

{"columns": ["compound", "concentration at 12 h"],
 "data": [
  ["C=C(C)C1CC2(C)C(=CC1=O)CCC(OC(=O)/C(C)=C\\C)C2C (stereo not shown) [petasin]", "5.1 ng/mL"]
]}

* * *

# methodSummary: 1st phase clinical test: pharmacokinetics of petasin in serum after single oral administration of tablets containing butterbur extract (open crossover; enzyme immunoassay)
# Type: in vivo, human (clinically healthy men)
# conditionDetails: male, human, serum, oral, 4 tablets, after administering 4 tablets; 1.5 h p.a.; read-out: Petasin serum concentration Max.

{"columns": ["molecule", "concentration at 1.5 h [ng/mL]"],
 "data": [
  ["C=C(C)C1CC2(C)C(=CC1=O)CCC(OC(=O)/C(C)=C\\C)C2C (stereo not shown)", 90.7]
]}

* * *

# methodSummary: 1st phase clinical test: pharmacokinetics of petasin in serum after single oral administration of tablets containing butterbur extract (open crossover; enzyme immunoassay)
# Type: in vivo, human (clinically healthy men)
# conditionDetails: male, human, serum, oral, 4 tablets, after administering 4 tablets; 4 h p.a.; read-out: Petasin serum concentration Min.

{"columns": ["compound", "concentration at 4 h"],
 "data": [
  ["C=C(C)C1CC2(C)C(=CC1=O)CCC(OC(=O)/C(C)=C\\C)C2C (stereo not shown)", "2.9 ng/mL"]
]}

* * *

# methodSummary: 1st phase clinical test: pharmacokinetics of petasin in serum after single oral administration of tablets containing butterbur extract (open crossover; enzyme immunoassay)
# Assay type: in vivo, human (clinically healthy men)
# conditionDetails: male, human, serum, oral, 2 tablets, after administering 2 tablets; 24 h p.a.; read-out: Petasin serum concentration Mean
# Description: Petasin ovalbumin is adsorptively bound to polystyrene microtitration plates in a concentration of […] in 0.1 M carbonate buffer, pH=9.5, (100 μl/well) for 16 hours at 4° C. and thereupon sucked off. After washing it two times with 300 μl/well washing buffer (PBS, 0.1% Tween 20) it is blocked for 2 hours at room temperature with 150 μl/well blocking solution (0.6% gelatine, 0.02% […] in PBS) and subsequently washed three times with washing buffer. […]
readoutKind: concentration at 24 h (ng/mL)

{"columns": ["compound", "readoutKind", "readoutValue"],
 "data": [
  ["C=C(C)C1CC2(C)C(=CC1=O)CCC(OC(=O)/C(C)=C\\C)C2C (stereo not shown)", "concentration at 24 h", 1.5]
]}

Source of measurements: patent US20050042701A1
